# EXPERIMENTAL SYSTEM: NL20 human bronchial epithelial cells expressing human Z-AAT (Homo sapiens, UniProt P01009, E366K)
# Sequence (P01009 25-418 E366K): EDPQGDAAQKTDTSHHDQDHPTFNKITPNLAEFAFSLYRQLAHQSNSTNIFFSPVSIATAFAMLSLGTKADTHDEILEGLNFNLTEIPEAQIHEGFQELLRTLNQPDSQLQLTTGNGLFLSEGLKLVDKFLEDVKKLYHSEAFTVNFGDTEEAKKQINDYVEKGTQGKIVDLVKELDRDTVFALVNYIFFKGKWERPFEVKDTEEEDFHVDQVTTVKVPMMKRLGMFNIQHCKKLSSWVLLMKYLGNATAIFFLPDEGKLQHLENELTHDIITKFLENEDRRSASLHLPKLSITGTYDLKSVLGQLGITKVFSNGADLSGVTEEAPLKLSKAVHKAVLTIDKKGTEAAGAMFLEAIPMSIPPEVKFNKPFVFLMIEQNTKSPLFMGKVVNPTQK
# ASSAY COMMENT: AAT Function Assay (MSD Assay NL20-SI Cell Line)
# APPLIED CONDITIONS: functionally active AAT in supernatant of NL20 cells expressing human Z-AAT, complex with hNE, MSD readout; read-out: NL20 Functional EC50
Entries annotated with measured EC50

CC1(C)COC(C)(c2ccc(C(=O)O)s2)c2c1n(-c1ccc(F)c(F)c1)c1cccc(O)c21 (stereo not shown) [Compound 55] = < 1.2 µM
CC1(C)COC2(CCOC(C(=O)O)C2)c2c1n(-c1ccc(F)cc1)c1cccc(O)c21 (stereo not shown) [Compound 138] = > 3 µM
CC1(C(=O)O)CC2(C1)OCCC(C)(C)c1c2c2c(O)cccc2n1-c1ccc(F)cc1 (stereo not shown) = > 3 µM
CC1(C)COC(C)(c2cc(C(=O)O)co2)c2c1n(-c1ccc(F)cc1)c1cccc(O)c21 (racemic) [Compound 124] = > 3 µM

Record CC1(C)CO[C@]2(C[C@@H](C(=O)O)C2)c2c1n(-c1ccc(F)c(Cl)c1)c1cccc(O)c12 . Reported EC50: 1.2 to 3 µM

Record CC1(C)COC(C)(c2csc(C(=O)O)c2)c2c1n(-c1ccc(F)c(F)c1)c1cc(F)cc(O)c21 (racemic) [Compound 79] . Reported EC50: < 1.2 µM

Record CC1(C)COC(C)(c2ccc(C(=O)O)cc2F)c2c1n(-c1ccc(F)cc1)c1cc(F)cc(O)c21 (stereo not shown) [Compound 183] . Reported EC50: 1.2 to 3 µM

Record CC1(C)CO[C@]2(CC[C@@](CF)(C(=O)O)CC2)c2c1n(-c1ccc(F)cc1)c1cccc(O)c12 . Reported EC50: < 1.2 µM

Record CC1(C)COC(C)(c2ccc(C(=O)O)c(F)c2)c2c1n(-c1ccc(F)cc1)c1cccc(O)c21 (single isomer, unassigned) [Compound 163] . Reported EC50: > 3 µM

Record CC1(C)COC(C)(c2cc(C(=O)O)cs2)c2c1n(-c1ccc(F)c(F)c1)c1cccc(O)c21 (stereo not shown) [Compound 36] . Reported EC50: < 1.2 µM

Record CC1(C)CO[C@]2(C[C@@H](c3ccc(C(=O)O)cc3)C2)c2c1n(-c1ccc(F)cc1)c1cccc(O)c12 . Reported EC50: < 1.2 µM

Record Cc1cc(-n2c3c(c4c(O)cccc42)[C@]2(C[C@@H](OCC(=O)O)C2)OCC3(C)C)ccc1F . Reported EC50: > 3 µM

Record Cc1cc(-n2c3c(c4cc(O)ccc42)[C@]2(C[C@@](C)(C(=O)O)C2)OCC3(C)C)ccc1F . Reported EC50: > 3 µM

Record CC1(C)CO[C@]2(C[C@](C(=O)O)(C(F)(F)F)C2)c2c1n(-c1ccc(F)cc1)c1cccc(O)c12 . Reported EC50: < 1.2 µM

Record CC1(C)COC(C)(c2ccc(C(=O)O)cc2F)c2c1n(-c1cccc(F)c1)c1cccc(O)c21 (stereo not shown) . Reported EC50: < 1.2 µM

Record CC1(C)CO[C@]2(C[C@@H](OCC(=O)O)C2)c2c1n(-c1ccc(F)c(Cl)c1)c1cccc(O)c12 . Reported EC50: 1.2 to 3 µM

Record CC(O[C@H]1C[C@@]2(C1)OCC(C)(C)c1c2c2c(O)cccc2n1-c1ccc(F)c(F)c1)C(=O)O (stereo partly shown) . Reported EC50: > 3 µM

Record CC1(C(=O)O)CCC2(C1)OCC(C)(C)c1c2c2c(O)cccc2n1-c1ccc(F)cc1 (racemic) [Compound 136] . Reported EC50: < 1.2 µM

Record CC1(C)COC(C)(c2ccc(C(=O)O)cc2F)c2c1n(-c1ccc(Cl)cc1)c1cccc(O)c21 (stereo not shown) . Reported EC50: < 1.2 µM

Record CC1(C)CO[C@]2(CC[C@](C(=O)O)(C(F)F)CC2)c2c1n(-c1ccc(F)c(Cl)c1)c1cccc(O)c12 . Reported EC50: < 1.2 µM

Source of measurements: patent US12502376B2
